# Tested system: T1, rat serum albumin (rat, UniProt P02770 25-608)
# T1 construct: Bought protein, immobilized on a CM5 chip by amine coupling; also called Rat SA
# Assay notes: SPR (Biacore 8K), albumin immobilized on CM5 chip, 25 C, 1:1 kinetic fit
Endpoint: koff (s⁻¹)
A number alone suffices; assume s⁻¹.

These recorded examples may help you get a feel for the data.
Binder | koff, s⁻¹
RLN Analog 3 (other, Single-chain fusion: VHH - (G4Q)5 L1 - RLN2 B chain (desB1) - L2 - RLN2 A chain) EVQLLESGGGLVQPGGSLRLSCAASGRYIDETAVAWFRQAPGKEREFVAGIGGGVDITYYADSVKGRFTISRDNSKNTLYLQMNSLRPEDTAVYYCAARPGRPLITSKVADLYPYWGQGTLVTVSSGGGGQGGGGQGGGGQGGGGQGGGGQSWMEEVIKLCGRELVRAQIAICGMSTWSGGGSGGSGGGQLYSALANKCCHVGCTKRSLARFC | 0.0027
RLN Analog 11 (other, Single-chain fusion: VHH - (G4Q)5 L1 - RLN2 B chain (desB1) - L2 of thirteen residues - RLN2 A chain (desA1-4)) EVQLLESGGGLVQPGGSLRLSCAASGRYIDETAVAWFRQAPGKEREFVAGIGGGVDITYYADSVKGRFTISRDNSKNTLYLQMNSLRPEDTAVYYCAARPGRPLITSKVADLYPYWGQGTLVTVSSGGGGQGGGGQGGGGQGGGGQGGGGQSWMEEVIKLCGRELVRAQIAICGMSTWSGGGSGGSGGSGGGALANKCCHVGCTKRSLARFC | 0.0028

According to the records, this binder RLN Analog 9 (other, Single-chain fusion: RLN2 B chain (desB1) - L2 - RLN2 A chain - (G4Q)5 L1 - VHH (C-terminal)) SWMEEVIKLCGRELVRAQIAICGMSTWSGGGSGGSGGGQLYSALANKCCHVGCTKRSLARFCGGGGQGGGGQGGGGQGGGGQGGGGQEVQLLESGGGLVQPGGSLRLSCAASGRYIDETAVAWFRQAPGKGREFVAGIGGGVDITYYADSVKGRFTISRDNSKNTLYLQMNSLRPEDTAVYYCAARPGRPLITSKVADLYPYWGQGTLVTVSSPP displays koff of 0.0075
